These data points were gathered from ChEMBL document CHEMBL2021781.

molecular target: Histone deacetylase (HDAC1 and HDAC2) (Homo sapiens, UniProt Q13547+Q92769); experiment: Inhibition of HDAC1/2 in human HeLa cell nuclear extract using Fluor de Lys as substrate after 15 mins by fluorometric analysis; format: protein assay
# IC50 listing for each entry below
Kindly answer with a numeric value in nM, unit omitted.

smiles_data=COc1cccc2c1C(=O)c1c(O)c3c(c(O)c1C2=O)C[C@@](O)(C(C)=O)C[C@@H]3O[C@H]1C[C@H](NCc2ccc(-c3cn(CCCCC(=O)NO)nn3)cc2)[C@H](O)[C@H](C)O1 observation_type=IC50 assay_result=89.9

Task: Given the entry COc1cccc2c1C(=O)c1c(O)c3c(c(O)c1C2=O)C[C@@](O)(C(C)=O)C[C@@H]3O[C@H]1C[C@H](NCc2ccc(-c3cn(CCCCCCC(=O)NO)nn3)cc2)[C@H](O)[C@H](C)O1 , report its measured IC50.
Output: 0.9

Task: What IC50 value was documented for this molecule, COc1cccc2c1C(=O)c1c(O)c3c(c(O)c1C2=O)C[C@@](O)(C(C)=O)C[C@@H]3O[C@H]1C[C@H](NCc2ccc(-c3cn(CCCCCCCC(=O)NO)nn3)cc2)[C@H](O)[C@H](C)O1 ?
Output: 4.2

Task: Quick check: IC50 of COc1cccc2c1C(=O)c1c(O)c3c(c(O)c1C2=O)C[C@@](O)(C(C)=O)C[C@@H]3O[C@H]1C[C@H](NCc2ccc(NC(=O)CCCCCCC(=O)NO)cc2)[C@H](O)[C@H](C)O1 ?
Output: 64.7
